The measured values listed here are drawn from patent US20090186907A1.

# System: rhabdomyosarcoma (RD) cells
# Experiment summary: Assay for inhibition of cell proliferation (MTT), rhabdomyosarcoma cells
# Assay type: cell-based, human
# Measurement parameters: ratio of paclitaxel IC50 to compound IC50, RD cells
Below, each of the compounds is paired with its reported RD Ratio (paclitaxel/compound) value.

Worked examples follow.
CCC(C)Cn1c(-c2c(F)cc(F)cc2F)c(Cl)nc(C(N)=O)c1=O (centres unmarked) [Compound 415]: 0.43
CNCCCOc1cc(F)c(-c2c(Cl)nc(-n3cccn3)c(=O)n2CC(C)C)c(F)c1.Cl [Compound 500]: 8.50
CC(C)Cn1c(-c2c(F)cc(OCCCN(C)C)cc2F)c(Cl)nc(-n2cccn2)c1=O [Compound 495]: 0.49

Consider the compound shown here: CCC(C)Cn1c(-c2c(F)cc(OCCN3CCCC3)cc2F)c(Cl)nc(-n2cccn2)c1=O (centres unmarked) [Compound 480] What is its recorded RD Ratio (paclitaxel/compound)?
0.04

Queued: CC[C@H](C)Cn1c(-c2ccc(F)cc2Cl)c(Cl)nc(-n2cccn2)c1=O [Compound 263]
0.34
